target: CYP3A4 Cytochrome P450 (Homo sapiens, UniProt P08684)
Sequence (P08684 whole entry): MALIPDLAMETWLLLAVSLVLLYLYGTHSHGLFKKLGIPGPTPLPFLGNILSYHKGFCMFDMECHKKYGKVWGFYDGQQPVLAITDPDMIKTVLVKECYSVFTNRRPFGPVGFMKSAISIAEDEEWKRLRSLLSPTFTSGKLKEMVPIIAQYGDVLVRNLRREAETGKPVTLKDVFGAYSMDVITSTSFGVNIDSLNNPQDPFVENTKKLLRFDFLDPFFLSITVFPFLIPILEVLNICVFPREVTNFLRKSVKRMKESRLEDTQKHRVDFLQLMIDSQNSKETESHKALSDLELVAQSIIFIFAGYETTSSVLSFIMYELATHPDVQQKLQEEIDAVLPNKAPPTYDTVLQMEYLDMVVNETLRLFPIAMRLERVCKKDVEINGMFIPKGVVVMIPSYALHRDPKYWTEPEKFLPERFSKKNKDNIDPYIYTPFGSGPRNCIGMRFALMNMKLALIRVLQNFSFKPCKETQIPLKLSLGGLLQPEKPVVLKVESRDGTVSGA
assay-metric: IC50 (nM)
Write the value in nM as a bare number.

Q: Lookup: IC50 / CYP3A4 Cytochrome P450 (Homo sapiens, UniProt P08684) / `COc1cccc(OC)c1NC(=O)c1ccc(Cc2cc3c(cc2C)C(C)(C)CCC3(C)C)o1`
Result: 1700

----------
biological target: human GnRH receptor (Homo sapiens, UniProt P30968); construct: expressed in transfected cells; host or cells: HEK 293 (hGnRH-R/293, from Dr. Stuart Sealfon); assay: Radioligand binding, 125I-GnRH-A displacement, membranes of HEK 293 cells with human GnRH receptor; conditions: 1 uM; read-out: % Inhib. @ 1 uM hGnRH
Sequence (P30968 whole entry): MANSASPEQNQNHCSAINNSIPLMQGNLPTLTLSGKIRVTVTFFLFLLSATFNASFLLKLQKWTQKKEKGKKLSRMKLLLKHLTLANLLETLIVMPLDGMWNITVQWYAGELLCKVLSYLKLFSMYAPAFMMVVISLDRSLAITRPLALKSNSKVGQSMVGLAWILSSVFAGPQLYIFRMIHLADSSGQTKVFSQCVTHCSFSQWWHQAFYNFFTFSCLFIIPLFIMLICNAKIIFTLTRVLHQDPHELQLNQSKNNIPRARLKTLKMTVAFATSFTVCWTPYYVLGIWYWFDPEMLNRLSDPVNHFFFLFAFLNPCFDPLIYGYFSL
assay-metric: inhibition at 1 µM
The number alone won't do; follow it with the unit.

Consider the reported inhibition at 1 µM for these molecules:
molecule	measured-on	readout-value
Cc1cc2c(cc1Cc1ccc(C(=O)NC(CO)CSCc3ccccc3)o1)C(C)(C)CCC2(C)C (stereo not shown)	human GnRH receptor (Homo sapiens, UniProt P30968)	16%
COc1ccc(C(=O)CNC(=O)c2ccc(Cc3cc4c(cc3C)C(C)(C)CCC4(C)C)o2)cc1 [drawing 1056]	human GnRH receptor (Homo sapiens, UniProt P30968)	21%
Cc1cc2c(cc1Cc1ccc(C(=O)NCCc3ccc(Cl)cc3Cl)o1)C(C)(C)CCC2(C)C [drawing 998]	human GnRH receptor (Homo sapiens, UniProt P30968)	16%

Next, consider the following molecule.
Q: So what's the measured inhibition at 1 µM for this one? Cc1cc2c(cc1Cc1ccc(C(=O)NCCc3cccnc3)o1)C(C)(C)CCC2(C)C [drawing 1032]
Result: 80%
